src = the RNAGym collection of RNA variant scans (doi:10.1021/acssynbio.7b00057)

B1: Pistol ribozyme (parent)
chain: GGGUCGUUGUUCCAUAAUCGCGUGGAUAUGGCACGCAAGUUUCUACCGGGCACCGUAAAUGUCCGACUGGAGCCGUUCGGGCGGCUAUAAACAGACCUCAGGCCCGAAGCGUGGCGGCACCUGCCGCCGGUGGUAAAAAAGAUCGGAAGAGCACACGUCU

- Variants of: B1
- protocol.text: aptazyme ON/OFF ratio, guanine; higher = stronger switching; co-transcriptional cleavage with and without guanine
metric: aptazyme ON/OFF ratio
Give bare numbers.

Some variants with known aptazyme ON/OFF ratio results, for comparison:
{"mutant.id": "G9C C12U C13U", "experimental.value": 1.31}
{"mutant.id": "U8A G9C U10C C12A C13U", "experimental.value": 0.995}
{"mutant.id": "U7C U8C G9U U10A U11C", "experimental.value": 1.16}

Report aptazyme ON/OFF ratio for every entry below.
1. U8G G9U U10C C13G
2. U7A U8C G9C U10A U11C C12A
3. U7A U8A U10G U11A C12U C13U
4. U7A U8G G9U
5. G9C U10G U11G C12G
6. U7G U8C G9U U11C C12G C13A
7. U7A U8C G9C U11G C12U C13G
8. U7G U8G G9U U11G

Completion:
1: 1.03; 2: 1.1; 3: 1.11; 4: 3.18; 5: 1.16; 6: 1.3; 7: 1.19; 8: 2.02
